Please provide measured CC50 at 5 days for the entries that follow.
# assay_text: Cytotoxicity toward primary peritoneal mouse macrophages
# Type: cell-based
# condition_context: Swiss, mouse, primary peritoneal mouse macrophages (PMM), PMM pCC50, primary mouse macrophages; highest in-test concentration 64 μM
Give bare numbers, in µM.

Study these solved cases before continuing.
Prompt line: For `CSc1ccc2nc(-c3ccccn3)c(Nc3ccc(F)cc3)n2c1` , what is its reported CC50 at 5 days?
Response line: 7.94

Prompt line: State the recorded CC50 at 5 days for this entry: `Fc1ccc(Nc2c(-c3ccccn3)nc3sccn23)cc1`
Response line: 31.6

Switching to the query record.
Prompt line: Endpoint output: CC50 at 5 days of `COc1cccc2nc(-c3ccccn3)c(Nc3ccc(F)cc3)n12` . Value?
Response line: 7.94

====

# assay_text: Thermodynamic aqueous solubility
# Assay type: physicochemical
So I've got a bunch of compounds here, and I need their log10(aq. sol.) values.
Field: value | Transform: log10 | Quantity: aq. sol. | Unit: µM

Prompt line: So what's the measured log10(aq. sol.) for this one? Fc1ccc(Nc2c(-c3ccccn3)nc3ccccn23)cc1 [Compound 3a]
Response line: 0.90

Take each entry in turn and give its log10(aq. sol.).
1. CSc1ccc2nc(-c3ccccn3)c(Nc3ccc(F)cc3)n2c1 [Compound 3n]
2. CS(=O)(=O)c1ccc2nc(-c3ccccn3)c(Nc3ccc(F)cc3)n2c1 [Compound 3o]
3. COc1ccn2cc(-c3ccccn3)nc2c1 [Compound 11b]
4. Fc1ccc(Nc2c(-c3ccccn3)nc3ncccn23)cc1 [Compound 3m]
5. Fc1ccc(Nc2c(-c3ccccn3)nc3c(F)cccn23)cc1 [Compound 3k]
6. COc1cccc2nc(-c3ccccn3)c(Nc3ccc(F)cc3)n12 [Compound 3c]
7. COc1ccn2c(Cl)c(-c3ccccn3)nc2c1 [Compound 12]
8. Fc1ccc(Nc2c(-c3ccccn3)nc3ccncn23)cc1 [Compound 3g]

Response line:
1: -0.30; 2: 0.70; 3: 2.86; 4: 2.26; 5: 1.08; 6: 1.79; 7: 2.75; 8: 1.81

Prompt line: Name the recorded log10(aq. sol.) for Fc1ccc(Nc2c(-c3ccccn3)nc3ccc(F)cn23)cc1 [Compound 3e] .
Response line: 1.40

====

# measured_on: CYP2C9 (Homo sapiens)
# Sequence (P11712 whole entry): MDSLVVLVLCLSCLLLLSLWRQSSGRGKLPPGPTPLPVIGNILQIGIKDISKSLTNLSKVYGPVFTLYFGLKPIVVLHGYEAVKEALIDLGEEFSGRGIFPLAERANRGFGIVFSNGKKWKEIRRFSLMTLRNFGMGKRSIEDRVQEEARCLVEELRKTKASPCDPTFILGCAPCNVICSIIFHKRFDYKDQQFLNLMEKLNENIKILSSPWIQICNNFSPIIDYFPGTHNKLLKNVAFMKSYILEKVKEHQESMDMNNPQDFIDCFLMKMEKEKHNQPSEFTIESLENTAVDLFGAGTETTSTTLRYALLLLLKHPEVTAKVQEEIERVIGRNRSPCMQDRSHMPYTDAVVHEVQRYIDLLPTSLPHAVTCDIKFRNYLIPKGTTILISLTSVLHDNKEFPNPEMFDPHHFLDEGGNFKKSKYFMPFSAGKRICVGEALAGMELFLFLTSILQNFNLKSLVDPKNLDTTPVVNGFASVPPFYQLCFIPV
test_readout: pIC50
Give bare numbers, as −log10 of the molar value.

Prompt line: Recorded pIC50 for `Fc1ccc(Nc2c(-c3ccccn3)nc3ccc(C4CC4)cn23)cc1` , please?
Response line: 6.12

====

# assay_text: Rat hepatocyte intrinsic clearance
# Assay type: in vitro ADME
# condition_context: rat, rat hepatocytes
Field 'label' (enum: Condition met / Condition not met). Set to Condition met when hepatocyte CLint is strictly under 100 µL/min/1e6 cells; else Condition not met.

Prompt line: Identify whether the compound `Fc1ccc(Nc2c(-c3ccccn3)nc3cc(F)ccn23)cc1` records hepatocyte CLint below 100 µL/min/1e6 cells.
Response line: Condition not met

Prompt line: Record `Fc1ccc(Nc2c(-c3ccccn3)nc3cccnn23)cc1` : is its hepatocyte CLint strictly below 100 µL/min/1e6 cells?
Response line: Condition not met

Prompt line: # strict comparison: is reported hepatocyte CLint < 100 µL/min/1e6 cells? input = `Fc1ccc(Nc2c(-c3ccccn3)nc3ncccn23)cc1`
Response line: Condition met

---
Prompt line: Is 100 µL/min/1e6 cells strictly greater than the compound's reported hepatocyte CLint? compound: `Fc1ccc(Nc2c(-c3ccccn3)nc3ccc(C4CC4)cn23)cc1`
Response line: Condition not met

Prompt line: Report whether reported hepatocyte CLint is lower than 100 µL/min/1e6 cells (strictly) for `Fc1ccc(Nc2c(-c3ccccn3)nc3ccc(F)cn23)cc1`
Response line: Condition not met

Prompt line: Please let me know if `COc1ccn2c(Cl)c(-c3ccccn3)nc2c1` shows hepatocyte CLint below 100 µL/min/1e6 cells.
Response line: Condition met

Prompt line: Dear reviewer, please state whether `COc1cccc2nc(-c3ccccn3)c(Nc3ccc(F)cc3)n12` has hepatocyte CLint strictly beneath 100 µL/min/1e6 cells.
Response line: Condition met

Prompt line: is_below(hepatocyte CLint, 100 µL/min/1e6 cells) for `Fc1ccc(Nc2c(-c3ccccn3)nc3cccc(F)n23)cc1` ?
Response line: Condition not met

Prompt line: Say whether its hepatocyte CLint is strictly beneath 100 µL/min/1e6 cells. Entry: `Fc1ccc(Nc2c(-c3ccccn3)nc3ccc(-c4cnoc4)cn23)cc1`
Response line: Condition not met
